B1: E3 ubiquitin-protein ligase NEDD4-like, residues 539 to 589; numbered along this chain, Q96PU5 (parent)
chain: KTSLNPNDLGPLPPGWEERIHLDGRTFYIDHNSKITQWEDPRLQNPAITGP

Variants of: B1
experiment.summary: abundance fitness (aPCA) (normalised: wild type 0, dead -1); higher = more abundant; growth selection in yeast, the domain comes from the species named
condition.set: Homo sapiens
Classification by abundance fitness | ranges: label 0 (below -0.3), label 1 (-0.3 to below -0.1), label 2 (-0.1 or more)

>>> assigned_class("W38L")
"label 1"
>>> assigned_class("R25F")
"label 0"
>>> assigned_class("L22T")
"label 2"
>>> assigned_class("W38F")
"label 2"
>>> assigned_class("N5M")
"label 2"
>>> assigned_class("T26M")
"label 1"
>>> assigned_class("I29C")
"label 1"
>>> assigned_class("T36F")
"label 1"
>>> assigned_class("W38H")
"label 1"
>>> assigned_class("S33C")
"label 1"
>>> assigned_class("N7F")
"label 1"
>>> assigned_class("S3C")
"label 0"
>>> assigned_class("D40E")
"label 0"
>>> assigned_class("P14Q")
"label 1"
>>> assigned_class("G15K")
"label 0"
>>> assigned_class("E18L")
"label 0"
>>> assigned_class("F27N")
"label 1"
>>> assigned_class("R19F")
"label 1"
>>> assigned_class("A47V")
"label 2"
>>> assigned_class("Q44F")
"label 1"
